// exon inclusion enrichment index lookup, one value per entry
B1: mRNA-splicing (parent)
chain: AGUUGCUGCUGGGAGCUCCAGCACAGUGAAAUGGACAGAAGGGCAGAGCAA

Variants of: B1
measurement-notes: exon inclusion enrichment index; higher = more inclusion; WT1 exon 5 minigene, HEK293

# sequence-variant, exon inclusion enrichment index
records = [
    ("C6A U7A C9A U10A G15A C16U", 0.351),
    ("G5U G8U C9U A23G C24G", 0.604),
    ("U4G G5A U7C G8A U10C", 3.1),
    ("G5C C6U G8C C9U U10C A37G G38A", 1.79),
]
